Target Or System: recombinant human NF-kappaB-inducing kinase (NIK/MAP3K14) (Homo sapiens)
Sequence (Q99558 whole entry): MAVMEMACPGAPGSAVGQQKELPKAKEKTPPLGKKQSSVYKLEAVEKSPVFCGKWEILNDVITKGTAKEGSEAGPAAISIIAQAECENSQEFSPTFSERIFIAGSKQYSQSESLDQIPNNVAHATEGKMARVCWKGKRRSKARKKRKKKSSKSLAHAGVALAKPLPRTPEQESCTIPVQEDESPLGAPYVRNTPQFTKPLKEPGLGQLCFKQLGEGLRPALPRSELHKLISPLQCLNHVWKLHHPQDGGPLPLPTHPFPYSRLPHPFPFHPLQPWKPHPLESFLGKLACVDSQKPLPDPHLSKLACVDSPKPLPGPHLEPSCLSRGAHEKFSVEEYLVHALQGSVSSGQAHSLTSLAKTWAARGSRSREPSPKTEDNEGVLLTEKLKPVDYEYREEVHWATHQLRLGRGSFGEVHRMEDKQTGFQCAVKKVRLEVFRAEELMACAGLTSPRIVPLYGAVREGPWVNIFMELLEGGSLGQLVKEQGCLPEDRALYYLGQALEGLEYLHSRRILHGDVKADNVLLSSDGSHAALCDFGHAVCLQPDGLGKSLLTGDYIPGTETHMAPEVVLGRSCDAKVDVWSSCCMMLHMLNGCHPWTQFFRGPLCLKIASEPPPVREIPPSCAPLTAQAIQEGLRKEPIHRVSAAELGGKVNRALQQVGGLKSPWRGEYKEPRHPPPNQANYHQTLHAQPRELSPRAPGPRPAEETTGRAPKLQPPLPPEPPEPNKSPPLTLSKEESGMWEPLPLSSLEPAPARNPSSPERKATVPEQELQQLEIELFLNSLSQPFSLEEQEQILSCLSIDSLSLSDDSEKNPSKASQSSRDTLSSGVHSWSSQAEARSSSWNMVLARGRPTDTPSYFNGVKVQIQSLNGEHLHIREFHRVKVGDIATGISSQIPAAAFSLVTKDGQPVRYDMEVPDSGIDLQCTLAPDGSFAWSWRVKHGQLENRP
Assay Comment: Inhibition of auto-phosphorylation of recombinant human NIK/MAP3K14 activity (AlphaScreen), Biological Assay A
Type: biochemical
Condition: averaged values over all measurements on all batches
Protocol: Inhibition of Auto-Phosphorylation of Recombinant Human NF-kappaB-Inducing Kinase (NIK/MAP3K14) Activity (AlphaScreen®) NIK/MAP3K14 auto-phosphorylation activity was measured using the AlphaScreen® (αscreen) format (Perkin Elmer). All compounds tested were dissolved in dimethyl sulfoxide (DMSO) and further dilutions were made in assay buffer. […] Protein A Acceptor and Glutathione-Donor beads were added before reading using an EnVision® Multilabel Plate Reader (Perkin Elmer). […]
Below, each entry is listed alongside its reported IC50.
State the value, then name its unit.

Using the record for [2H]C([2H])(c1cccc(Nc2nccc(-c3cc(C#N)c4c(c3)[C@@](C)(CO)CN4)n2)c1C)N1CC(C)OC(C)C1 (stereo partly shown) [Compound 198] , report its IC50.
4.6 nM

Suppose we examine the molecule COc1cc(CO)c(Cl)cc1Nc1nccc(-c2cc(C#N)c3c(c2)C(C)(C)CN3)n1 [Compound 84] ; what IC50 value has been reported?
19.1 nM

Recorded IC50 for Cc1cc(C(=O)NC2CCOCC2)ccc1Nc1nccc(-c2cc(C#N)c3c(c2)C(C)(C)CN3)n1 [Compound 78] , please?
2.7 nM

Which IC50 is reported for this molecule? Cc1ccc(CN2CC(F)(F)C2)cc1Nc1nccc(-c2cc(C#N)c3c(c2)[C@@](C)(CO)CN3)n1 [Compound 219]
15.5 nM
